Data credit: patent US7074789B2

target: Itk (Homo sapiens, UniProt Q08881); construct: Kinases are expressed as either kinase domains or full length constructs; made in house; assay: Kinase inhibition assay (33P transfer), Itk; type: biochemical; settings: Table 3, class symbols; read-out: Itk-1
Sequence (Q08881 whole entry, species assumed, the tested form may be a part): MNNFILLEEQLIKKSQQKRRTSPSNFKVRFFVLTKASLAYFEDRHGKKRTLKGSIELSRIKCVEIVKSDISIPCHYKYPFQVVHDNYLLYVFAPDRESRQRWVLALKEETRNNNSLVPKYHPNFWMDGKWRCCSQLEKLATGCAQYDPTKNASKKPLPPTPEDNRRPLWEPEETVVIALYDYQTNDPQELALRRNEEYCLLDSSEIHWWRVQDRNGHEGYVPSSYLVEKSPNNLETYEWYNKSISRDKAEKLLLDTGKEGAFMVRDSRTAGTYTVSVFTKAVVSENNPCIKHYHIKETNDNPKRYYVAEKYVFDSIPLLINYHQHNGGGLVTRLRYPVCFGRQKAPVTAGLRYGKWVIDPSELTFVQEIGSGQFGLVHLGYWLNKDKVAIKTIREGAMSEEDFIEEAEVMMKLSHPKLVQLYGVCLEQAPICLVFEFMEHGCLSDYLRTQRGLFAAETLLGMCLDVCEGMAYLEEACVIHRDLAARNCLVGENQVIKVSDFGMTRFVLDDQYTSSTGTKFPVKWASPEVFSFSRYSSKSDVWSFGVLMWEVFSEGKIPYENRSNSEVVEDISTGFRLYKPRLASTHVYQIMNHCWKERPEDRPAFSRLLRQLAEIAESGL
measurement.name: IC50

Example entries and their recorded answers appear below.
compound	IC50
c1ccc(Cn2ncc3cc(Nc4ncnc(Nc5cccc(Cn6ccnn6)c5)n4)ccc32)cc1 [Compound 676]	0.843 to 5.06 µM
COc1cc(Nc2ncnc(-c3cccnc3NCc3cccc4ccccc34)n2)cc(OC)c1OC [Compound 844]	> 9.1 µM
FC(F)(F)Oc1ccc(Nc2ncnc(Nc3ccc4c(cnn4Cc4ccccc4)c3)n2)cc1 [Compound 906]	> 9.43 µM
COc1cc(Nc2ncnc(-c3cccnc3Nc3ccccc3)n2)cc(OC)c1OC [Compound 1092]	> 10.5 µM

Lookup: Requested field: IC50. Item: Fc1ccc(CNc2ncccc2-c2ncnc(Nc3ccc4[nH]ncc4c3)n2)cc1 [Compound 1108]
Found: 5.82 to 8.49 µM

Lookup: Ok, now COc1ccc(Nc2ncnc(NCc3cccc(Cl)c3)n2)cc1OC [Compound 792]
Found: > 12.1 µM

Lookup: And what about the compound CN(c1ccc2c(cnn2Cc2ccccc2)c1)c1ncnc(Nc2cccc(Cn3ccnn3)c2)n1 [Compound 677] ?
Found: 4.91 to 7.16 µM

Lookup: Here is the next compound: COc1cc(Nc2ncnc(-c3cccnc3Nc3ccc(C(F)(F)F)cc3)n2)cc(OC)c1OC [Compound 835]
Found: > 9.03 µM

Lookup: Next up: COc1cc(Nc2ncnc(-c3cccnc3Nc3ccccc3)n2)ccc1NC(=O)CCCN1CCNCC1 [Compound 1093]
Found: 4.45 to 6.49 µM

Lookup: Queued: CC(C)Nc1ncccc1-c1ncnc(Nc2cccc(CO)c2)n1 [Compound 1114]
Found: 10.4 to 13.4 µM

Lookup: Also need COc1ccc(Nc2ncnc(NCC(=O)c3ccccc3)n2)cc1OC [Compound 857] , thanks.
Found: > 12.3 µM

Lookup: For COc1ccc(Nc2ncnc(N(C)CC(O)c3ccccc3)n2)cc1OC (stereo not shown) [Compound 868] then?
Found: 1.05 to 6.29 µM

Lookup: # repeat for CC(C)Nc1ncccc1-c1ncnc(Nc2cccc(Cn3ccnn3)c2)n1 [Compound 1098]
Found: 1.03 to 6.19 µM

* * *

biological target: IGFR-1 (Homo sapiens); construct: Kinases are expressed as either kinase domains or full length constructs; made in house; assay: Kinase inhibition assay (33P transfer), IGFR-1; assay type: biochemical; settings: Table 2, kinase inhibition class
Sequence (P08069 31-1367): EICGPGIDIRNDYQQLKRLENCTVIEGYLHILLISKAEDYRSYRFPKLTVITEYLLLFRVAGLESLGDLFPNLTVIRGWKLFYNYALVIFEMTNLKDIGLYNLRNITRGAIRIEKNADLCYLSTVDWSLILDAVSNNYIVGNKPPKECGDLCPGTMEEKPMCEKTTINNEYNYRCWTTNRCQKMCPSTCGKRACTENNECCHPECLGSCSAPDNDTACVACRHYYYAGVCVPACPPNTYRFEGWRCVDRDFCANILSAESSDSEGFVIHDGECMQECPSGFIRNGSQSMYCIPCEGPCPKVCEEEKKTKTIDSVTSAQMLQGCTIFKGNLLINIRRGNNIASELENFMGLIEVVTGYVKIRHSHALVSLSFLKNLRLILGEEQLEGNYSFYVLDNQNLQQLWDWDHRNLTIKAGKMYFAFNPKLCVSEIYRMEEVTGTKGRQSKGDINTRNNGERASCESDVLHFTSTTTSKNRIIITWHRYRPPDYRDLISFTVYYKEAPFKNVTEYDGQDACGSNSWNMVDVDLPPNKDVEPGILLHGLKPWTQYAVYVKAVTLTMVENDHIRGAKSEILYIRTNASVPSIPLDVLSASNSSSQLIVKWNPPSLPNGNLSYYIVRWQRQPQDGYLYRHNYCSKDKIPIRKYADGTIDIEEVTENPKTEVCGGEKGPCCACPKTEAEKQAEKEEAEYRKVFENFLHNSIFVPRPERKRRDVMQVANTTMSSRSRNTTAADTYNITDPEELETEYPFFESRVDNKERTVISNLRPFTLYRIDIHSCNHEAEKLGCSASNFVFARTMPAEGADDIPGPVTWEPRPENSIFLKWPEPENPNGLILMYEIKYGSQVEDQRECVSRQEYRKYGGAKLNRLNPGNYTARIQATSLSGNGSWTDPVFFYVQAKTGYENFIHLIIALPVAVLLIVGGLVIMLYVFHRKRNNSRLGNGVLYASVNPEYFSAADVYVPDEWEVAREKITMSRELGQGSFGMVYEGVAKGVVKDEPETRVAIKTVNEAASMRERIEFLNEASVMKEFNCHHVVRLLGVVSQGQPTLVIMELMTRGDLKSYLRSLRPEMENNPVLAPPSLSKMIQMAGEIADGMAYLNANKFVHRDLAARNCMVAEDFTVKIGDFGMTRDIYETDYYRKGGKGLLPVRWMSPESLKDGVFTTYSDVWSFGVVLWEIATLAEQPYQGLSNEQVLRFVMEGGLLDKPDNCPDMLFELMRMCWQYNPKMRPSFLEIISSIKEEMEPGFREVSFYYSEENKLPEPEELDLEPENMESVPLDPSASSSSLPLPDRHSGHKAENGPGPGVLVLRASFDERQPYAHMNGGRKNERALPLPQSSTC
pIC50: −log10 of the molar value.
A collection of compounds and their measured pIC50

compound	experimental.target	pIC50
COc1cc(Nc2ncnc(Nc3ccc(C)c(F)c3)n2)cc(OC)c1OC [Compound 300]	IGFR-1 (Homo sapiens)	> 5.98
COc1cc(C)c(Nc2ncnc(-c3cccs3)n2)cc1OC [Compound 359]	IGFR-1 (Homo sapiens)	< 4.86
COc1ccc(Nc2ncnc(Nc3ccc(C)c(O)c3)n2)cc1OC [Compound 119]	IGFR-1 (Homo sapiens)	5.00 to 5.17
Clc1ncnc(Nc2ccc(OCc3ccccc3)cc2)n1 [Compound 153]	IGFR-1 (Homo sapiens)	< 4.84
COc1cc(Nc2ncnc(Nc3cc(OC)c(OC)c(OC)c3)n2)cc(OC)n1 [Compound 253]	IGFR-1 (Homo sapiens)	< 4.96
FC(F)C(F)(F)Oc1cccc(Nc2ncnc(-c3ccnc(N4CCCCC4)c3)n2)c1 [Compound 346]	IGFR-1 (Homo sapiens)	< 5.00
COc1cc(Nc2ncnc(-n3c(=O)[nH]c4ccccc43)n2)cc(OC)c1OC [Compound 325]	IGFR-1 (Homo sapiens)	< 4.94
COc1ccc(Nc2ncnc(Nc3ccccc3C)n2)cc1OC [Compound 111]	IGFR-1 (Homo sapiens)	> 5.93
COc1cc(Nc2ncnc(-c3cccnc3)n2)cc(OC)c1OC [Compound 219]	IGFR-1 (Homo sapiens)	< 4.88
COc1cc(Nc2ncnc(-n3c(NCC(N)=O)nc4ccccc43)n2)cc(OC)c1OC [Compound 389]	IGFR-1 (Homo sapiens)	> 6.05

Lookup: Tell me reported pIC50 for COc1cc(Nc2ncnc(Nc3ccc(N(C)C(C)=O)cc3)n2)cc(OC)c1OC [Compound 81] , tested with IGFR-1 (Homo sapiens).
Found: < 4.97

Lookup: Also NC(=O)c1ccc(Nc2ncnc(-c3ccccc3)n2)cc1 [Compound 1028] ?
Found: < 4.81

Lookup: Try Cc1cccc(Nc2ncnc(Nc3cccc(Br)c3)n2)c1 [Compound 109] next.
Found: < 4.90

Lookup: What about this compound? COc1cc(Nc2ncnc(Nc3ccc(N4CCOCC4)cc3)n2)cc(OC)c1OC [Compound 101]
Found: < 4.99

Lookup: What do you get for COc1cc(Nc2ncnc(Nc3ccc(C)cc3F)n2)cc(OC)c1OC [Compound 937] ?
Found: > 5.98
